- System: polypeptide having α-isomaltosylglucosaccharide-forming enzyme activity
- ASSAY PROCEDURE: Action on saccharides, summary in words for the polypeptide in general
- Type: biochemical
- REPORTED CONDITIONS: summary of Table 7
- Method: It was tested whether saccharides can be used as substrates for the polypeptide of α-isomaltosylglucosaccharide-forming enzyme of the present invention. […]
ATTRIBUTE MEASURED: Action of the polypeptide on the saccharide (in words)

{"MOLECULE": "OC[C@H]1O[C@H](O[C@H]2[C@H](O)[C@@H](O)[C@H](O)O[C@@H]2CO)[C@H](O)[C@@H](O)[C@@H]1O [Maltose, maltose]", "TARGET OR SYSTEM": "polypeptide having α-isomaltosylglucosaccharide-forming enzyme activity", "REPORTED": "slightly acted"}
{"MOLECULE": "OC[C@H]1O[C@H](O[C@H]2[C@H](O)[C@@H](CO)OC(O)[C@@H]2O)[C@H](O)[C@@H](O)[C@@H]1O (stereo partly drawn) [Nigerose, nigerose]", "TARGET OR SYSTEM": "polypeptide having α-isomaltosylglucosaccharide-forming enzyme activity", "REPORTED": "slightly acted"}
{"MOLECULE": "OC[C@H]1O[C@H](O[C@H]2C(O)O[C@H](CO)[C@@H](O)[C@@H]2O)[C@H](O)[C@@H](O)[C@@H]1O (stereo partly drawn) [Kojibiose, kojibiose]", "TARGET OR SYSTEM": "polypeptide having α-isomaltosylglucosaccharide-forming enzyme activity", "REPORTED": "slightly acted"}

Data origin, for the record: patent US7211422B2
